Target: Potassium-transporting ATPase (Sus scrofa, UniProt P18434+P19156)
Sequence (P18434 whole entry): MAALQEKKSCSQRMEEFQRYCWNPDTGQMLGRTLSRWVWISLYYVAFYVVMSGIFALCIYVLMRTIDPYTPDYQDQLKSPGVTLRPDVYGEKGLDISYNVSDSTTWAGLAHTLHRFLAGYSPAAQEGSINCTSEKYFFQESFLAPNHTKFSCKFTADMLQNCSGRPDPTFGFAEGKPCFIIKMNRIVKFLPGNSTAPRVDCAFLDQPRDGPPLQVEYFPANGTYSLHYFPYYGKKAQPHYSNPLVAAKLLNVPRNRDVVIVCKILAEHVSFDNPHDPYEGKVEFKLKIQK
Sequence (P19156 whole entry): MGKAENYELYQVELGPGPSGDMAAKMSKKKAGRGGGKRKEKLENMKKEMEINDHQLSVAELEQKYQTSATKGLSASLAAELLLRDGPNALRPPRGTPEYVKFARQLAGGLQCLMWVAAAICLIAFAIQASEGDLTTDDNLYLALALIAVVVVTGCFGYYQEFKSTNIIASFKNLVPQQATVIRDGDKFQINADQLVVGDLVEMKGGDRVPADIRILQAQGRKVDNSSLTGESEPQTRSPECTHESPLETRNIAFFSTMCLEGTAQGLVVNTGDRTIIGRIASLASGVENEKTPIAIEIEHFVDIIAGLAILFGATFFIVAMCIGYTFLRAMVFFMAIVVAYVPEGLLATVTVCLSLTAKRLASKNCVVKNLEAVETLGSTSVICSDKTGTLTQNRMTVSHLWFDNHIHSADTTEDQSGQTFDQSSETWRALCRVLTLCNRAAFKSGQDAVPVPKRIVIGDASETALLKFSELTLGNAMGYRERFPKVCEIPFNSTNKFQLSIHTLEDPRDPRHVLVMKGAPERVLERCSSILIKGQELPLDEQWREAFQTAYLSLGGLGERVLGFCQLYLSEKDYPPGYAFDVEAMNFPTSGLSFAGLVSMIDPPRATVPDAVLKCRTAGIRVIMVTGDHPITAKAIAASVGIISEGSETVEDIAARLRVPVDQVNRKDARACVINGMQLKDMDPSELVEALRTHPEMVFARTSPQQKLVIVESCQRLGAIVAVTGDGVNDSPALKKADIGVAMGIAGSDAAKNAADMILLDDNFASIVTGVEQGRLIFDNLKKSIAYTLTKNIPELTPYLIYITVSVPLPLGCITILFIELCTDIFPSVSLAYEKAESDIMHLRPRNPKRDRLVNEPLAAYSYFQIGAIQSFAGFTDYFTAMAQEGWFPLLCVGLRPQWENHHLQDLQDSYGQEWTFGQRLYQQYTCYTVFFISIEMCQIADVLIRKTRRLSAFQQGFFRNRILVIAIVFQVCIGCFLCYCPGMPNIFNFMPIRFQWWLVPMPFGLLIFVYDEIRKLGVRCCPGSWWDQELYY
Experiment: Inhibition of K+ -stimulated gastric ATPase activity was measured using lyophilized gastric vesicles at pH 7
Assay type: tissue-based, Stomach
Reported endpoint: IC50 (µM)
Numbers only; they are read as µM.

If you can, please state the reported IC50 value of CCCC(=O)c1cnc2c(C3OC3CO)cccc2c1Nc1ccccc1C (stereo in doubt; 29a) .
3.1

====

Molecular target: Potassium-transporting ATPase (Rattus norvegicus) (UniProt P09626+P18598)
Assay: Inhibition of pentagastrin-stimulated gastric acid secretion in the anesthetized rat after iv administration
Format: functional, organism-based
Details: Stomach
Reported endpoint: ED50 (µmol/kg)
Numbers only; they are read as µmol/kg.

CCC(=O)c1cnc2c(OCCO)cccc2c1Nc1ccc(F)cc1C | 2.85
Cc1cc(F)ccc1Nc1c(C(=O)C(C)C)cnc2c(CO)cccc12 | 3.57
CCCC(=O)c1cnc2c(OC)cccc2c1Nc1ccccc1OCC | 4.9
CCCC(=O)c1cnc2c(C)cccc2c1Nc1ccc(OC)cc1OC | 3.9
Cc1ccccc1Nc1c(C(=O)C(C)C)cnc2c(OCCO)cccc12 | 2.07
CCCC(=O)c1cnc2c(OCCOC)cccc2c1Nc1ccc(F)cc1C | 2.91

Consider now this further compound.
If you can, please state the reported ED50 value of Cc1ccccc1Nc1c(C(=O)C(C)C)cnc2c(CO)cccc12 .
1.86
